Let's look at some compounds and their measured solubility kinetic.
experimentalContext: buffer; pH 7.4; 200.0 µM

# compound, units, boundType, solubility kinetic
data = [
    ("O=C(Cc1ccc(Cl)cc1)NCc1nc(-c2ccccc2)no1", "µg/mL", "=", 1.9),
    ("COC(=O)c1nccnc1C(=O)Nc1ccccc1N1CCOCC1", "µg/mL", ">", 51.4),
    ("O=C(O)/C(=N/NC(=O)c1ccc(Cl)cc1)c1ccccc1", "µg/mL", ">", 45.4),
    ("CN1CCN(C(=O)c2ccc(Oc3ccc([N+](=O)[O-])cc3)cc2)CC1", "µg/mL", ">", 51.2),
    ("O=C(COC(=O)CC1CC2CCC1C2)Nc1ccc(F)cc1Cl (stereo not given)", "µg/mL", "=", 13.2),
]

Hello, the source for this data is PubChem BioAssay AID1996, in case you need it.
